Data provenance: PubChem BioAssay (NCI)

assay-comment: NCI Yeast Anticancer Drug Screen. Data for the mec2-1 strain (AID 157)
condition-context: S. cerevisiae mec2-1 strain, at 3.7 µM, hits give high values
The panel holds about 79,000 compounds, 15% with a hit somewhere; the sample as a whole holds those more often. Activity calls are given as the source filed them. No stated cut-off is given here; in the data, active means growth inhibition above about 70%; inactive means the rest.
measure-name: growth inhibition

q: Fill in growth inhibition for record CCCCCCCN(CCCCCCC)CC(=O)c1ccc2cc(Cl)c3ccccc3c2c1
a: 0% (inactive)

q: Fill in growth inhibition for record CCO/C=C1\SC(=S)N(c2ccc(OCC)cc2)C1=O
a: -35% (inactive)

q: Fill in growth inhibition for record O=C1c2ccccc2N2OC3(N4CCCC4)CCCCC3C12c1ccccc1 (stereo unspecified)
a: -7% (inactive)

---

Reported values of growth inhibition for individual entries
assay-comment: NCI Yeast Anticancer Drug Screen. Data for the sgs1 mgt1 strain (AID 161);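 further: 0% = growth of cultures given vehicle only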
condition-context: S. cerevisiae sgs1 mgt1 strain, at 5.0 µM (retest, dose inferred, filed as 0.5), hits give high values
The panel holds about 79,000 compounds, 15% with a hit somewhere; the sample as a whole holds those more often.
Write the number in % without appending the unit.

Below, 10 compounds whose answers are already recorded.
[
  {
    "compound": "N#C/C(=C\\NC(=S)Nc1ccc(S(N)(=O)=O)cc1)C(=O)c1ccc2ccccc2c1",
    "u": "%",
    "growth inhibition": 25
  },
  {
    "compound": "O=C1/C(=C/c2ccc(Cl)c(Cl)c2)CNC/C1=C\\c1ccc(Cl)c(Cl)c1",
    "u": "%",
    "growth inhibition": 27
  },
  {
    "compound": "Cc1cc2nc3ccccc3n2c2ccccc12",
    "u": "%",
    "growth inhibition": -10
  },
  {
    "compound": "Cn1c(-c2ccc(/C=N\\N3CCN(/N=C/c4ccc(-c5c[n+]6ccsc6n5C)cc4)CC3)cc2)c[n+]2ccsc12",
    "u": "%",
    "growth inhibition": 18
  },
  {
    "compound": "COc1ccc2cc3c4cc5c(cc4cc[n+]3cc2c1OC)OCO5",
    "u": "%",
    "growth inhibition": 68
  },
  {
    "compound": "O=CC1(F)CC1(c1ccccc1)c1ccccc1 (stereo not given)",
    "u": "%",
    "growth inhibition": -2
  },
  {
    "compound": "CC(C)C(c1ccccc1)c1ccccc1",
    "u": "%",
    "growth inhibition": -54
  },
  {
    "compound": "O=C1c2ccccc2C(=O)c2sc(Nc3ccccc3Cl)nc21",
    "u": "%",
    "growth inhibition": 100
  },
  {
    "compound": "OB(O)c1ccccc1C#Cc1ccccc1",
    "u": "%",
    "growth inhibition": -16
  },
  {
    "compound": "Cc1cccc2c(Cl)c3cccc(C)c3nc12",
    "u": "%",
    "growth inhibition": -6
  }
]

q: Fill in growth inhibition for record Cc1cc(Cl)ccc1NC(=O)/C(Cl)=C(/Cl)C(=O)O
a: 0

q: Fill in growth inhibition for record CCCCCCCCCCCCCCCCCCNC(=S)/N=C/c1c(O)c2ccccc2[nH]c1=O
a: 4

q: Fill in growth inhibition for record O=C1CSC(c2ccccc2)N1c1ccc(-c2ccc(-n3c(-c4ccccc4)nc4ccccc4c3=O)cc2)cc1 (stereo not given)
a: 6
